Data credit: patent US8921555B2

Measured pIC50, listed per entry for reference.
# measurementTarget: HIF-PHD2 (Homo sapiens, UniProt Q9GZT9)
# Construct: FLAG-tagged full length PHD2 expressed in and purified from baculovirus-infected Sf9 cells; FLAG; made in house; host or cells: baculovirus-infected Sf9 cells
# Sequence (Q9GZT9 whole entry): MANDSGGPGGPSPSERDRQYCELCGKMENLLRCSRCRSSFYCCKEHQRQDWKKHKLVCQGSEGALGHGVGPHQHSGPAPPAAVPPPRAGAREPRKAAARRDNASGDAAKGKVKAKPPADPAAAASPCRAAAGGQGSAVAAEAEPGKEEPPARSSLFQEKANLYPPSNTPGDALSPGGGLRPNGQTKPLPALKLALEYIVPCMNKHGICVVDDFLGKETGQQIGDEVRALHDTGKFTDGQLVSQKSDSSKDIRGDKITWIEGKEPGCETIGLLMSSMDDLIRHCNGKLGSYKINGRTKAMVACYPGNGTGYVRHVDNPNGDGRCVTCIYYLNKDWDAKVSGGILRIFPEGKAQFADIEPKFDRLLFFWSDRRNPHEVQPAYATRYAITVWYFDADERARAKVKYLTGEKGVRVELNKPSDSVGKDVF
# protocolNotes: Assay for HIF-PHD2 Catalytic Activity (PHD2 Binding Activity)
# Type: biochemical
pIC50: −log10 of the molar value.
measurementName: pIC50

compound: Cc1cccnc1CN1CCC2(CC1)C(=O)N(c1ccc(-c3ccc(CC(=O)O)cc3)cc1)C(=O)N2c1ncccn1
measurementName: pIC50
testValue: 7.30 to 7.70
--
compound: COc1ccnc(N2C(=O)N(c3ccc(-c4ccccc4)cc3)C(=O)C23CCN(Cc2nc[nH]c2C)CC3)n1
measurementName: pIC50
testValue: 7.70 to 9.30
--
compound: COc1ccnc(N2C(=O)N(c3ccc(-c4ccccc4)cc3)C(=O)C23CCN(Cc2ncccc2C)CC3)n1
measurementName: pIC50
testValue: 7.70 to 9.30
--
compound: O=C(O)Cn1ccnc1CN1CCC2(CC1)C(=O)N(c1ccc(-c3ccccc3)cc1)C(=O)N2c1nccc(O)n1
measurementName: pIC50
testValue: 7.70 to 9.30
--
compound: Cc1cccnc1CN1CCC2(CC1)C(=O)N(c1ccc(-c3cccc(C(=O)O)c3)cc1)C(=O)N2c1ncccn1
measurementName: pIC50
testValue: 7.70 to 9.30
--
compound: Cc1cccnc1CN1CCC2(CC1)C(=O)N(c1ccc(-c3ccccc3)cc1)C(=O)N2c1cc(C(=O)O)ccn1
measurementName: pIC50
testValue: 7.70 to 9.30
--
compound: Cc1cccnc1CN1CCC2(CC1)C(=O)N(c1ccc(-c3ccccc3)cc1)C(=O)N2c1ncc(O)cn1
measurementName: pIC50
testValue: 7.70 to 9.30
--
compound: COC(=O)c1ccc(-c2ccc(N3C(=O)N(c4ncccn4)C4(CCN(Cc5ncccc5C)CC4)C3=O)cc2)cc1
measurementName: pIC50
testValue: 7.70 to 9.30
--
compound: COc1cc(N2C(=O)N(c3ccc(-c4ccc(C(=O)O)cc4)nc3)C(=O)C23CCN(Cc2cc(O)ccn2)CC3)ncn1
measurementName: pIC50
testValue: 7.70 to 9.30
--
compound: CCCCOC(=O)c1[nH]cnc1CN1CCC2(CC1)C(=O)N(c1ccc(-c3ccccc3)cc1)C(=O)N2c1nccc(OC)n1
measurementName: pIC50
testValue: 7.30 to 7.70
--
compound: COc1ccnc(N2C(=O)N(c3ccc(C#N)cc3)C(=O)C23CCN(Cc2ncccc2C)CC3)n1
measurementName: pIC50
testValue: < 7.30
--
compound: COc1cc(N2C(=O)N(c3ccc(-c4ccc(C(=O)O)cc4F)nc3)C(=O)C23CCN(Cc2ncccc2C)CC3)ncn1
measurementName: pIC50
testValue: 7.70 to 9.30
--
compound: Cc1cccnc1CN1CCC2(C(=O)N(c3ccc(-c4ccccc4)cc3)C(=O)N2c2cc(O)ncn2)C(C(=O)O)C1 (stereo not drawn)
measurementName: pIC50
testValue: 7.70 to 9.30
--
compound: O=C(O)c1[nH]cnc1CN1CCC2(CC1)C(=O)N(c1ccc(-c3ccccc3)cc1)C(=O)N2c1cc(O)ncn1
measurementName: pIC50
testValue: 7.70 to 9.30
--
compound: Cc1cccnc1CN1CCC2(CC1)C(=O)N(c1ccc(-c3ccccc3)cc1)C(=O)N2c1cccc(C(=O)O)n1
measurementName: pIC50
testValue: 7.70 to 9.30
--
compound: O=C1N(c2ccc(-c3ccccc3)cc2)C(=O)C2(CCN(Cc3ncccc3Br)CC2)N1c1nccc(O)n1
measurementName: pIC50
testValue: < 7.30
--
compound: CCOC(=O)C1CN(Cc2ncccc2C)CCC12C(=O)N(c1ccc(-c3ccccc3)cc1)C(=O)N2c1cc(O)ncn1 (stereo not drawn) [Compound 3-6]
measurementName: pIC50
testValue: 7.70 to 9.30
--
compound: Cc1cccnc1CN1CCC2(CC1)C(=O)N(c1ccccc1)C(=O)N2c1nccc(O)n1
measurementName: pIC50
testValue: < 7.30
--
compound: COc1ccnc(N2C(=O)N(c3ccccc3)C(=O)C23CCN(Cc2ncccc2C)CC3)n1
measurementName: pIC50
testValue: < 7.30
--
compound: COc1cccc(N2C(=O)N(c3ccc(-c4ccccc4)cc3)C(=O)C23CCN(Cc2ncccc2C)CC3)n1
measurementName: pIC50
testValue: 7.70 to 9.30
--
compound: CC(C)Oc1cccc(CN2CC[C@@]3(C[C@@H]2C)C(=O)N(c2ccccc2)C(=O)N3c2cccc(F)c2)c1
measurementName: pIC50
testValue: < 5.00
--
compound: CCCCOC(=O)c1[nH]cnc1CN1CCC2(CC1)C(=O)N(c1ccc(-c3ccccc3)cc1)C(=O)N2c1nccc(O)n1
measurementName: pIC50
testValue: 7.30 to 7.70
--
compound: Cc1cccnc1CN1CCC2(CC1)C(=O)N(c1ccc(-c3nnn[nH]3)cc1)C(=O)N2c1nccc(O)n1
measurementName: pIC50
testValue: < 7.30
--
compound: COc1ccnc(N2C(=O)N(c3ccc(-c4ccc(C(=O)O)cc4C)nc3)C(=O)C23CCN(Cc2ncccc2C)CC3)n1
measurementName: pIC50
testValue: 7.70 to 9.30
--
compound: Cc1cccnc1CN1CCC2(CC1)C(=O)N(c1ccc(-c3ccccc3)cc1)C(=O)N2c1ccnc(O)c1
measurementName: pIC50
testValue: 7.70 to 9.30
--
compound: Cc1cccnc1CN1CCC2(CC1)C(=O)N(c1ccc(-c3ccccc3)cc1)C(=O)N2c1nccc(C(=O)O)n1
measurementName: pIC50
testValue: 7.70 to 9.30
--
compound: CCOC(=O)C1CN(Cc2ncccc2C)CCC12C(=O)N(c1ccc(-c3ccccc3)cc1)C(=O)N2c1nccc(O)n1 (stereo not drawn)
measurementName: pIC50
testValue: 7.70 to 9.30
